molecular target: mouse ACVR2A (mouse, UniProt P27038 20-135, limits assumed); test: ELISA; also: test concentration or dose not given here
Sequence (P27038 20-135 limits assumed): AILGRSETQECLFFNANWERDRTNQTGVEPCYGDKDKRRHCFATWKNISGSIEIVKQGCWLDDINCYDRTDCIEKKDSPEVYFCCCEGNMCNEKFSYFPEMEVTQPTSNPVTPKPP

Binder	optical density / OD
369_F07 (antibody, V domains shown, VH/VL only) VH: EVQLLESGGGLVQPGGSLRLSCAASGFTFDSYSMNWVRQAPGKGLEWVAGINYNGGYKSYADSVKGRFTISRDNSKNTLYLQMNSLRAEDTAVYYCARSATWHDTHLDYWGQGTLVTVSS VL: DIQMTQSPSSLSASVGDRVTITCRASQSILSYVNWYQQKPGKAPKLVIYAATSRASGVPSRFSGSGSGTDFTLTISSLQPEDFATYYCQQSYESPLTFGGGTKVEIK	3.43
375_A06 (antibody, V domains shown, VH/VL only) VH: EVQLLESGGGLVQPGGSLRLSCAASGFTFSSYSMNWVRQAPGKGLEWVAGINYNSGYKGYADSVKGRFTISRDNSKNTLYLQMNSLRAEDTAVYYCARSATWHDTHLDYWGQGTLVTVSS VL: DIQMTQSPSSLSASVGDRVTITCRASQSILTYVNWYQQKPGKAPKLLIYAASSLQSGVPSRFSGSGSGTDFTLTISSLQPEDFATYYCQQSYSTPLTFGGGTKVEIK	3.71
376_G09 (antibody, V domains shown, VH/VL only) VH: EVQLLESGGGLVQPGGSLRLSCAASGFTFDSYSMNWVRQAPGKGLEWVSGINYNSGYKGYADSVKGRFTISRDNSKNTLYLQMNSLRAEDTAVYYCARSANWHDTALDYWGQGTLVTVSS VL: DIQMTQSPSSLSASVGDRVTITCRASQSISYYLNWYQQKPGKAPKLLIYAVTSRASGVPSRFSGSGSGTDFTLTISSLQPEDFATYYCQQSYDNPLTFGGGTKVEIK	3.65
371_F05 (antibody, V domains shown, VH/VL only) VH: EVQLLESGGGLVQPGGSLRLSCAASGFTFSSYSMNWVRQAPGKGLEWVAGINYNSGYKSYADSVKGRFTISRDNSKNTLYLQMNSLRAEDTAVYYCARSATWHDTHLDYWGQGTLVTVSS VL: DIQMTQSPSSLSASVGDRVTITCRASQSILSYLNWYQQKPGKAPKLLIYAATSRHSGVPSRFSGSGSGTDFTLTISSLQPEDFATYYCQQSYENPLTFGGGTKVEIK	3.15
375_D12 (antibody, V domains shown, VH/VL only) VH: EVQLLESGGGLVQPGGSLRLSCAASGFTFDSYGMNWVRQAPGKGLEWVSSINYNSGYTSYADSVKGRFTISRDNSKNTLYLQMNSLRAEDTAVYYCARSANWHDTALDYWGQGTLVTVSS VL: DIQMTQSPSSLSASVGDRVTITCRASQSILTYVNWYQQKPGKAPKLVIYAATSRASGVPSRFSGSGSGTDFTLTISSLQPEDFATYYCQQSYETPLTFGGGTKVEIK	3.16

Data origin: patent US20210380703A1
